# test_method_notes: Identification of proteins required for the processing of the EWS-FLI1 nascent transcript;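 note: robust z of luciferase light less the median z of siRNAs with the same seed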
# test_context: TC32 Ewing sarcoma NR0B1-luc vs CMV-luc, 48 h; screened at 20 nM (by protocol)
In all, about 59,000 sequences were measured (the read-out: median about -0.00055, lowest 2% from about -2 on). This is one part of a sample in which the lowest values are shown more often than they occur.
# seed-corrected z-score per record follows
Answer field: number only, no words.

Here's what some known entries look like.
biosequence="UUCUCGUGCACUGUCAAAG against SMU1" reported_measurement=-3.77
biosequence="ACCUCUUCAACAUCUAACC against GEMIN4" reported_measurement=0.118

Q: Return reported seed-corrected z-score; argument: AUCUGGUUCAUUACAGUAG against BSDC1
Ans: -2.55

Q: Subsequent entry: UCAGGUUGAUGAAAUGGGC against PRDM15
Ans: -0.519

Q: Subsequent entry: UUGGGCAUAUGUUUGCUGC against TACO1
Ans: 0.306

Q: Subsequent entry: UGCGUGAACCUCUUGAACA against TNFAIP2
Ans: 0.027

----------
# test_method_notes: Identification of proteins required for the processing of the EWS-FLI1 nascent transcript;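 note: robust z of luciferase light less the median z of siRNAs with the same seed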
# test_context: TC32 Ewing sarcoma NR0B1-luc vs CMV-luc, 48 h; screened at 20 nM (by protocol)
Whole data set: some 59,000 sequences, median the read-out near -0.00055, cut for the lowest 2% near -2. The sample as a whole holds a higher share of the lowest values than the screen did.
seed-corrected z-score strictly under -0.6 means Y; at -0.6 or over means N.

Q: Take the sequence UUGCCGUAUAGGUAGUUUG against NPTX2 and say whether its seed-corrected z-score is less than -0.6.
Ans: N

Q: Subsequent entry: AUGGUCUUCACUCUUGUGC against CCR9
Ans: Y

Q: Subsequent entry: AUAUGUGCAGUCUUCUCCC against LINC00200
Ans: N

Q: Subsequent entry: UUAAUGAUAGAGACUAGGA against LTC4S
Ans: Y

Q: Subsequent entry: UGUCAUUUUUCUUCGGUUC against PWP2
Ans: N

Q: Subsequent entry: UAGUUGUCCUUCAUAAUUC against CCDC67
Ans: Y

----------
# seed-corrected z-score per record follows
# test_method_notes: Identification of proteins required for the processing of the EWS-FLI1 nascent transcript;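 note: robust z of luciferase light less the median z of siRNAs with the same seed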
# test_context: TC32 Ewing sarcoma NR0B1-luc vs CMV-luc, 48 h; screened at 20 nM (by protocol)
Whole data set: some 59,000 sequences, median the read-out near -0.00055, cut for the lowest 2% near -2. Shown is part of a subset that was picked to be rich in the lowest values.
Answer field: number only, no words.

Here's what some known entries look like.
biosequence="UGUAUCCUAAGGUAUCGGC against VWA8" reported_measurement=-0.221
biosequence="UAGGUGUUGAUGAUCUCCC against XAB2" reported_measurement=-2.44
biosequence="UACAGAUCCGCGAUGUACU against RCN3" reported_measurement=0.823
biosequence="AAAAGCUCACGGAGAAUCC against LINC01433" reported_measurement=1.28
biosequence="UUUUGUGCAUAGACCAUAG against DHRS12" reported_measurement=-0.542

Q: Return reported seed-corrected z-score; argument: GUCUCUGGUACCUGUGUGC against LOC440300
Ans: -0.25

Q: Subsequent entry: UAGGUGACGAUCUCCAUCA against HCK
Ans: -1.81

Q: Subsequent entry: AAAAUUUCAUCCAUCAAUC against NUS1
Ans: 0.0341

----------
# test_method_notes: Identification of proteins required for the processing of the EWS-FLI1 nascent transcript;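 note: robust z of luciferase light less the median z of siRNAs with the same seed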
# test_context: TC32 Ewing sarcoma NR0B1-luc vs CMV-luc, 48 h; screened at 20 nM (by protocol)
# Experimental: Ewing sarcoma (ES) cells depend on the EWS-FLI1 fusion transcription factor for cell survival. […] Luciferase activity was assessed 48 hours post siRNA-transfection. Twenty microl of serum-free media containing Lipofectamine RNAiMax (0.05 microl) was added to wells containing siRNA (0.8 pmol). […] Luciferase expression was measured using OneGlo (Promega, Madison, WI). […]
In all, about 59,000 sequences were measured (the read-out: median about -0.00055, lowest 2% from about -2 on). The full list was thinned out, with the lowest values kept by preference.
Label met for high-side seed-corrected z-score (at or above -0.6) and not met for low-side seed-corrected z-score (below it).

Worked cases, answers included:
biosequence="UCCCAGUUGUGGAUGAUCC against PLEKHM1" classification=met
biosequence="UCUUCGUUGACCACACCAC against KCNIP1" classification=met
biosequence="UUUCAGCUUAGGAAAGGCA against KRTDAP" classification="not met"

Q: # bool: seed-corrected z-score of UCAGGUGGUAGGGAGGUUG against UBE2L6 >= -0.6
Ans: not met

Q: Subsequent entry: AAUAAAUCCAUCCUUGUUC against GUCA1C
Ans: met

Q: Subsequent entry: UUAUACACGAGGAAGAUGU against TMEM169
Ans: met

Q: Subsequent entry: UGACUAAGAACUGUAUCCC against CC2D2B
Ans: not met

Q: Subsequent entry: AUGUAUUCCAUUCUCACCG against GRSF1
Ans: not met

Q: Subsequent entry: AUAGUUACAGAGGCAAGAG against MESTP3
Ans: met

Q: Subsequent entry: UGUAUAGAAAAAUUCACGC against CRY1
Ans: met

Q: Subsequent entry: UCAUGAAUUGUGGCAGGCA against LINC00598
Ans: met

Q: Subsequent entry: AGAUGAAAAAGUAAGGCCG against TRIM58
Ans: not met

----------
# test_method_notes: Identification of proteins required for the processing of the EWS-FLI1 nascent transcript;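 note: robust z of luciferase light less the median z of siRNAs with the same seed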
# test_context: TC32 Ewing sarcoma NR0B1-luc vs CMV-luc, 48 h; screened at 20 nM (by protocol)
Over roughly 59,000 sequences, the read-out has its median near -0.00055; the lowest 2% begin near -2. The full list was thinned out, with the lowest values kept by preference.
recorded_endpoint: seed-corrected z-score
Answer field: number only, no words.

biosequence="UGGGUAGUUAGACUUGAUC against ZNF160" reported_measurement=-2.52
biosequence="UCAGGUAUCUGAGAAUCUC against APOBEC3B" reported_measurement=-0.83
biosequence="UUAAUUCCCGUGCCCUUGG against PON2" reported_measurement=-3.2
biosequence="UCUCUAACUUCGACCCUCU against C19orf68" reported_measurement=0.527
biosequence="ACAUUGGUACCUGUCAUCC against GLYCTK" reported_measurement=0.203

Q: Return reported seed-corrected z-score; argument: AUAGUGACCACCCUCAAUC against SPTA1
Ans: 0.293

Q: Subsequent entry: UAUCUUUCCUGGUAUGUCA against LPCAT3
Ans: -0.533

Q: Subsequent entry: UUUUAUUCCCUGUAUCAUG against ZNF619
Ans: -2.89

Q: Subsequent entry: AAUCUUUGGAGUACGCUGG against B2M
Ans: -0.0765

Q: Subsequent entry: UCUGUUUCCAUUGCGUUCU against FLJ41278
Ans: -0.527

Q: Subsequent entry: ACCUUGACCACACUUAUUU against VSTM2L
Ans: -1.03

Q: Subsequent entry: UCGUCUAAAAUGACUAACG against SACS
Ans: 0.485

----------
# test_method_notes: Identification of proteins required for the processing of the EWS-FLI1 nascent transcript;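 note: robust z of luciferase light less the median z of siRNAs with the same seed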
# test_context: TC32 Ewing sarcoma NR0B1-luc vs CMV-luc, 48 h; screened at 20 nM (by protocol)
In all, about 59,000 sequences were measured (the read-out: median about -0.00055, lowest 2% from about -2 on). Only a selection was taken, and the lowest values are over-represented in it overall.
# seed-corrected z-score per record follows
Answer field: number only, no words.

Q: Return reported seed-corrected z-score; argument: UCACGGUGCACAAAGUUCU against ZAP70
Ans: -0.0104

Q: Subsequent entry: UACGUGAGCUUGUACAGCC against MTTP
Ans: -0.0803

Q: Subsequent entry: AUUGGAUCAGUGGAGCUCU against SPANXN4
Ans: 0.397

Q: Subsequent entry: UCCCUGGUAAAGUAUAGUC against EGFEM1P
Ans: -1.34

Q: Subsequent entry: UUUGCUAGAAGCCUUCUUG against DOK6
Ans: -0.847

Q: Subsequent entry: UUGGUUGUCAUGAUCAGUG against PAPD7
Ans: 0.333

Q: Subsequent entry: UGUCCUACCACAGUCUUCA against LINC00703
Ans: -0.2

----------
# test_method_notes: Identification of proteins required for the processing of the EWS-FLI1 nascent transcript;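 note: robust z of luciferase light less the median z of siRNAs with the same seed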
# test_context: TC32 Ewing sarcoma NR0B1-luc vs CMV-luc (EWS-FLI1 target promoter against control promoter), 48 h; screened at 20 nM (by protocol)
The full ranking holds about 59,000 sequences; the median of the read-out is about -0.00055, and the lowest 2% start at about -2. The entries come from a sample that favours the lowest values as a whole.
Label t for high-side seed-corrected z-score (at or above -2) and f for low-side seed-corrected z-score (below it).

biosequence="AGAUCUAAUAACAAUAAGC against EIF2S3" classification=f
biosequence="UUCUUCUUAGAUUUAUGCC against RPL3" classification=f
biosequence="UAGGAAAUCAUCUCCCUCC against TMEM169" classification=f
biosequence="UUUCAGCUGCGCUCGGUUC against GOLGA6L2" classification=f
biosequence="UUCUUCUCGGCCUGUUUCC against RPL13A" classification=t
biosequence="UUCAGCUAUAAAGUAAAGC against IL18" classification=f

Q: # bool: seed-corrected z-score of UUUUUAACAGAGGUCUCCA against RAB42P1 >= -2
Ans: t

Q: Subsequent entry: ACUGUUCCCAACAAGGUCC against UBXN4
Ans: t

Q: Subsequent entry: AAUUUGUUCACGUAAACUU against POU3F2
Ans: t
